Consider the following molecules; for each one, report its activity, negative = inhibition.
- assayed_system: Cytochrome P450 2C19 (Homo sapiens)
- procedure_summary: Cytochrome panel assay with activity outcomes; also: % is scaled to controls: 0 for no effect and ±100 for the full control effect
- recorded_conditions: recombinant CYP, pro-luciferin dealkylation, luminescence, p450-cyp2c19; series mostly up to 57.1 µM
In all, about 16,000 compounds went through this assay and about 5,800 (36%) were called active. Inconclusive results (about 23%) are left out. The list shows a part of the results.

Query: Report activity, negative = inhibition for "S=C(S)NCCCn1ccnc1" please.
Response: -30% [at 11.4 µM] (inactive)

Query: And what about the molecule "CCOC(=O)N/N=C1/C[C@@H](O)[C@@H](O)[C@@H]2[C@@H]3C(=O)N(CC)C(=O)[C@H]3CC[C@H]12" ?
Response: -7.53% [at 11.4 µM] (inactive)

Query: Can you check "CCOC(=O)N/N=C1/C[C@@H](O)[C@@H](O)[C@@H]2[C@@H]3C(=O)N(Cc4ccc5c(c4)OCO5)C(=O)[C@H]3CC[C@@H]12" next?
Response: 4.88% [at 11.4 µM] (inactive)

Query: And the next one, "Cc1cc(C)nc(SCCc2cccc[n+]2C)n1" ?
Response: 66.4% [at 11.4 µM] (inactive)

Query: Next molecule: NC(N)=N[C@@H]1C(O)[C@H](N=C(N)N)[C@@H](O)C(O)[C@H]1O (stereo partly specified)
Response: 12.7% [at 11.4 µM] (inactive)

Query: // query: "NC(N)=N/N=C(\c1ccc(Cl)cc1)C1CC1"
Response: -27.1% [at 11.4 µM] (inactive)

Query: Please answer likewise for "CCOC(=O)CCN1C(=O)[C@H]2[C@H]3[C@H](O)[C@H](O)C/C(=N/OC[C@@H](O)COCc4ccco4)[C@@H]3CC[C@@H]2C1=O"
Response: 40.5% [at 11.4 µM] (inactive)

Query: Same read-out for "CCN1C(=O)[C@H]2[C@H]3[C@H](O)[C@H](O)C/C(=N/NC(=O)OCc4ccccc4)[C@H]3CC[C@@H]2C1=O" ?
Response: -7.17% [at 11.4 µM] (inactive)

Query: Same again, this time with "CCOC(=O)N/N=C1/C[C@@H](O)[C@@H](O)[C@@H]2[C@@H]3C(=O)N(Cc4ccc5c(c4)OCO5)C(=O)[C@H]3CC[C@H]12"
Response: -2.19% [at 11.4 µM] (inactive)

Query: Next molecule up: "Cc1cc(C(C)(C)C)c(OCCCN2CCOCC2)c(C(C)(C)C)c1"
Response: -2.67% [at 11.4 µM] (inactive)

Query: Field entry: "COc1ccc(COC(=O)N/N=C2/C[C@@H](O)[C@@H](O)[C@@H]3[C@@H]4C(=O)N(c5cccc(Oc6ccccc6)c5)C(=O)[C@H]4CC[C@@H]23)cc1"
Response: 20.4% [at 11.4 µM] (inactive)

Query: Follow-up entry: "CCOC(=O)CCN1C(=O)[C@H]2[C@H]3[C@H](O)[C@H](O)C/C(=N/OC/C=C(\C)CCC=C(C)C)[C@@H]3CC[C@@H]2C1=O"
Response: 6.34% [at 11.4 µM] (inactive)

Query: What do you have for "O=C1[C@H]2CCn3c(=O)n(-c4ccccc4)c(=O)n3[C@H]2[C@H](O)[C@H]2O[C@@H]12" ?
Response: -1.55% [at 11.4 µM] (inactive)

Query: And the next one, "CN1CCN(c2ccncc2S(=O)(=O)N2CCN(C)CC2)CC1" ?
Response: 15.7% [at 11.4 µM] (inactive)

Query: Here is the next molecule: "CC(=O)OC[C@H]1O[C@@H](O/N=C(\C)CCC(=O)OC[C@@H]2O[C@H](C#Cc3ccccc3)C=C[C@@H]2Oc2ccc(C)cc2)[C@H](OC(C)=O)[C@@H](OC(C)=O)[C@H]1OC(C)=O"
Response: -18.3% [at 11.4 µM] (inactive)

Query: Subsequent entry: "Cn1c(=S)c2[nH]c(SCc3cccnc3)nc2n(C)c1=O"
Response: 23.1% [at 11.4 µM] (inactive)

Query: Next: "c1c[nH]c(CN2CCN(Cc3ncc[nH]3)CC2)n1"
Response: -25.8% [at 11.4 µM] (inactive)

Query: Here is the next molecule: "O=C(O)c1nn(-c2ccc(Cl)cc2)c2c1C(=O)c1ccccc1C2=O"
Response: 4.89% [at 11.4 µM] (inactive)

Query: And the next one, "COc1ccc(COC(=O)N/N=C2/C[C@@H](O)[C@@H](O)[C@@H]3[C@@H]4C(=O)N([C@@H](C)c5ccccc5)C(=O)[C@H]4CC[C@H]23)cc1" ?
Response: 1.27% [at 11.4 µM] (inactive)

Query: Then what about the molecule "CCO[P@]1(=O)OC[C@@H]2O[C@H](n3cnc4c(N)ncnc43)[C@H](O)[C@@H]2O1" ?
Response: 14% [at 11.4 µM] (inactive)

Query: Next: "O=C(O)/C(=C\c1ccccc1)Cc1ccccc1"
Response: -14.2% [at 11.4 µM] (inactive)

Query: Next up: "CC(C)(CO[C@H]1C[C@H]2CC[C@@]1(C)C2(C)C)[N+](=O)[O-]"
Response: 12.6% [at 11.4 µM] (inactive)

Query: How about this molecule: "c1ccc(/C(=N/Nc2nc3ccccc3s2)c2ccccn2)cc1"
Response: -42.9% [at 11.4 µM] (inactive)

Query: # repeat for "O=C(Cn1ccc(=O)[nH]c1=O)Nc1ccc(C(=O)O)c(O)c1"
Response: 40.8% [at 11.4 µM] (inactive)

Query: Now consider COc1cc(C2SCCCCCCCCCCSC(c3ccc(O)c(OC)c3)SCCCCCCCCCCS2)ccc1O (stereo unspecified) and answer again.
Response: 20.3% [at 11.4 µM] (inactive)

Query: Could you do the same for "O=C(O)CCCSc1ccccc1" , please?
Response: 31.6% [at 11.4 µM] (inactive)

Query: Same thing, different molecule: "CO[C@@H]1COC(=O)[C@H](Cc2ccccc2)NC(=O)C/C=C\[C@@H](C)[C@H](OC)COC(=O)[C@@H](C)NC(=O)C/C=C\[C@H]1C"
Response: 10.6% [at 11.4 µM] (inactive)

Query: Ok, now "CC(C)C(=O)Cc1ccc2ccccc2n1"
Response: 6.88% [at 11.4 µM] (inactive)

Query: Ok, now "O=C(O)[C@H]1CCCC[C@@H]1C(=O)Nc1nc2ccccc2[nH]1"
Response: 26.5% [at 11.4 µM] (inactive)

Query: Check "Cc1ccc(C(C)C)n1C(=O)OC(C)(C)C" too.
Response: 4.81% [at 11.4 µM] (inactive)

Query: Another: "CCc1cc2c(nc1CC)CCN(CC/C(C)=N/O[C@@H](C)c1cn([C@@H]3COC[C@@H]3O)nn1)C2"
Response: 14.6% [at 11.4 µM] (inactive)

Query: Note, next up: "O=S(=O)(O)c1ccc(-c2nnc(-c3ccccn3)nc2-c2ccc(S(=O)(=O)O)o2)o1"
Response: -6.8% [at 11.4 µM] (inactive)

Query: Now the molecule "CC1(C)OCC([C@H](O)C2=CCCCC2=O)CO1"
Response: 2.21% [at 11.4 µM] (inactive)

Query: # repeat for "[O-][n+]1c(CN2CCCCC2)nc2cccc3c2c1-c1ccccc1-3"
Response: 9.09% [at 11.4 µM] (inactive)

Query: Please do the same for "C[C@H]1COC(=O)[C@H](Cc2ccccc2)NC(=O)[C@@H](C)COC(=O)[C@H](Cc2ccccc2)NC1=O" as well.
Response: -17.3% [at 11.4 µM] (inactive)

Query: Moving on to "C[C@@H]1CC[C@@H]2C(=O)N3[C@@H](CC[C@@H](C)[C@@H]3c3ccc(-c4ccco4)cc3)C(=O)N2[C@H]1c1ccc(-c2ccco2)cc1"
Response: 0.199% [at 11.4 µM] (inactive)
